# Tested on: fish sperm DNA (FSDNA)
# Procedure Details: UV-visible titrations with fish sperm DNA, multiple independent binding sites (MIS) model
# Reported Conditions: 25 mM MOPS, 50 mM NaCl, pH 7.0, 25 °C, association constant
# Description: We then studied the interactions of the complexes with double‐stranded DNA using UV‐visible titrations. […] Nevertheless, the data from the UV‐visible titrations were provisionally analyzed globally using the multiple independent binding sites (MIS) model to determine apparent binding affinities and apparent binding site sizes (Table 4). […]

Compound | K (apparent DNA-binding affinity)
COc1c[c-]c(-c2nc3ccccc3s2)cc1.COc1c[c-]c(-c2nc3ccccc3s2)cc1.NCCN.[Cl-].[Ir+3] [[Ir(L3)2(en)]Cl] | 4.6 ± 2.3 10^5 M^−1
Cc1c[c-]c(-c2nc3ccccc3s2)cc1.Cc1c[c-]c(-c2nc3ccccc3s2)cc1.NCCN.[Cl-].[Ir+3] [[Ir(L2)2(en)]Cl] | 4.2 ± 3.7 10^5 M^−1
NCCN.[Cl-].[Ir+3].[c-]1ccccc1-c1nc2ccccc2s1.[c-]1ccccc1-c1nc2ccccc2s1 [[Ir(L1)2(en)]Cl] | 4.3 ± 5.3 10^5 M^−1
FC(F)(F)Oc1c[c-]c(-c2nc3ccccc3s2)cc1.FC(F)(F)Oc1c[c-]c(-c2nc3ccccc3s2)cc1.NCCN.[Cl-].[Ir+3] [[Ir(L5)2(en)]Cl] | 0.6 ± 0.3 10^5 M^−1
Clc1c[c-]c(-c2nc3ccccc3s2)cc1.Clc1c[c-]c(-c2nc3ccccc3s2)cc1.NCCN.[Cl-].[Ir+3] [[Ir(L4)2(en)]Cl] | 0.8 ± 0.7 10^5 M^−1

###

# Procedure Details: Solubility limits in buffer from saturated solutions
# Format: physicochemical
# Reported Conditions: buffer 25 mM MOPS, pH 7.0, 50 mM NaCl; saturated solutions, estimated via molar absorption coefficients
# key: entry, value: Solubility limit
Observable: Solubility limit (µM)

Molecule | Unit Abbreviation | Result
FC(F)(F)Oc1c[c-]c(-c2nc3ccccc3s2)cc1.FC(F)(F)Oc1c[c-]c(-c2nc3ccccc3s2)cc1.NCCN.[Cl-].[Ir+3] [[Ir(L5)2(en)]Cl] | µM | 75
Clc1c[c-]c(-c2nc3ccccc3s2)cc1.Clc1c[c-]c(-c2nc3ccccc3s2)cc1.NCCN.[Cl-].[Ir+3] [[Ir(L4)2(en)]Cl] | µM | 100
Cc1c[c-]c(-c2nc3ccccc3s2)cc1.Cc1c[c-]c(-c2nc3ccccc3s2)cc1.NCCN.[Cl-].[Ir+3] [[Ir(L2)2(en)]Cl] | µM | 327
COc1c[c-]c(-c2nc3ccccc3s2)cc1.COc1c[c-]c(-c2nc3ccccc3s2)cc1.NCCN.[Cl-].[Ir+3] [[Ir(L3)2(en)]Cl] | µM | 739

###

# Test system: fish sperm DNA (FSDNA)
# Procedure Details: UV-visible titrations with fish sperm DNA, multiple independent binding sites (MIS) model
# Reported Conditions: 25 mM MOPS, 50 mM NaCl, pH 7.0, 25 °C

Compound | binding site size (apparent) [base pairs]
NCCN.[Cl-].[Ir+3].[c-]1ccccc1-c1nc2ccccc2s1.[c-]1ccccc1-c1nc2ccccc2s1 [[Ir(L1)2(en)]Cl] | 0.70
Clc1c[c-]c(-c2nc3ccccc3s2)cc1.Clc1c[c-]c(-c2nc3ccccc3s2)cc1.NCCN.[Cl-].[Ir+3] [[Ir(L4)2(en)]Cl] | 0.43
FC(F)(F)Oc1c[c-]c(-c2nc3ccccc3s2)cc1.FC(F)(F)Oc1c[c-]c(-c2nc3ccccc3s2)cc1.NCCN.[Cl-].[Ir+3] [[Ir(L5)2(en)]Cl] | 0.92
COc1c[c-]c(-c2nc3ccccc3s2)cc1.COc1c[c-]c(-c2nc3ccccc3s2)cc1.NCCN.[Cl-].[Ir+3] [[Ir(L3)2(en)]Cl] | 0.76
Cc1c[c-]c(-c2nc3ccccc3s2)cc1.Cc1c[c-]c(-c2nc3ccccc3s2)cc1.NCCN.[Cl-].[Ir+3] [[Ir(L2)2(en)]Cl] | 0.64
